Provide the reported pEC50 of each item.
- Target: recombinant LanCL1 (rLanCL1) (Homo sapiens, UniProt O43813)
- Sequence (O43813 whole entry, species assumed): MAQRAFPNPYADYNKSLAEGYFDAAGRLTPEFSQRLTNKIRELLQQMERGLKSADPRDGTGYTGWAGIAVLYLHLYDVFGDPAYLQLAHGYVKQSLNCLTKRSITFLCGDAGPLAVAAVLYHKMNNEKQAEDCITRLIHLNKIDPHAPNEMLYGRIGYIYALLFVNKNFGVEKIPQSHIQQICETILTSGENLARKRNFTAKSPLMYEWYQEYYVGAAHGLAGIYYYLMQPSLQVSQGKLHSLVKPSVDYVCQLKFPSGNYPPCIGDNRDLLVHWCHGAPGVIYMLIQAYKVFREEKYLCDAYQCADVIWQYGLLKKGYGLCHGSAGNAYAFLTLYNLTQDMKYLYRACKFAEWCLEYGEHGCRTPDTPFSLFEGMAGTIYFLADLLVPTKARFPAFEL
- Method: biochemical
pEC50: −log10 of the molar value. Positions of bridges follow the written chain, without caps; N, C: chain ends. Residues, ends and D or L forms follow the SMILES beside them.

## Input Can you look up the measured pEC50 of CC[C@H](C)[C@@H]1NC(=O)[C@H](CCCNC(=N)N)NC(=O)[C@@H](N)CSSC[C@@H](C(=O)O)NC(=O)[C@H](CC(N)=O)NC(=O)[C@H](CC(N)=O)NC(=O)[C@H](CC(N)=O)NC(=O)[C@H](Cc2c[nH]cn2)NC(=O)[C@H]([C@@H](C)CC)NC1=O [compound 24] (H-CRIIHNNNC-OH; disulfide 1-9) for me?
## Output 3.70 to 4.00

## Input Can you look up the measured pEC50 of CC(C)[C@@H]1NC(=O)[C@H](CO)NC(=O)[C@H](CCCNC(=N)N)NC(=O)[C@@H](N)CSSC[C@@H](C(=O)NCC(=O)O)NC(=O)[C@H](CO)NC(=O)CNC(=O)[C@H](CCC(=O)O)NC1=O [compound 3] (H-CRSVEGSCG-OH; disulfide 1-8; N-terminus and C-terminus assumed) for me?
## Output ~3.82

## Input Can you look up the measured pEC50 of CC(C)[C@@H]1NC(=O)[C@@H]2CCCN2C(=O)[C@H](CCCNC(=N)N)NC(=O)[C@H](CO)NC(=O)[C@H](CCCNC(=N)N)NC(=O)[C@@H](N)CSSC[C@@H](C(=O)N[C@@H](CO)C(=O)O)NC(=O)[C@H](CO)NC(=O)[C@H](CO)NC(=O)[C@H](CCC(=O)O)NC1=O [compound 14] (H-CRSRPVESSCS-OH; disulfide 1-10; N-terminus and C-terminus assumed) for me?
## Output ~4.00

###

- Tested on: HKx31 (H3N2)
- Assay type: in vivo, mice
- Test Parameters: single 10 mg/kg dose
Positions of bridges follow the written chain, without caps; N, C: chain ends. No end group written: not given here.
Reported Endpoint: reducing the PMN infiltrate in BAL fluid, compared with the peptide of SEQ ID NO:38

52 (PALNTS) [compound 52]; did not show any changes
9 (RSVEGS) [compound 9]; as effective
2 (CRSVEGSCGF; disulfide 1-8) [compound 2]; as effective
44 (HIVESS) [compound 44]; did not show any changes
43 (RALRTK) [compound 43]; did not show any changes
29 (RIIHNN) [compound 29]; as effective

## Input Lab note: need reducing the PMN infiltrate in BAL fluid, compared with the peptide of SEQ ID NO:38 with HKx31 (H3N2) for entry 42 (KALPRS) [compound 42] , please look it up.
## Output as effective
